# Test system: S. typhimurium TA1535/pSK1002
# TEST SETTINGS: 4NQO 0.05 mg/L, −S9; genistein 10 μM and/or mineral added (Table 2); NQO line = genotoxin alone
PROPERTY: G (growth ratio)
Please give only the number in your answer, with no unit.

O=S(=O)([O-])[O-].[Fe+2] [Fe, iron(II) sulphate] : 1.10

Entry [Ca+2].[Cl-].[Cl-] [Ca, calcium chloride] has what G (growth ratio)?
1.13

Recorded G (growth ratio) of O=[Se](=O)([O-])[O-].[Na+].[Na+] [Se, sodium selenate] , please.
1.10

Find the recorded G (growth ratio) belonging to O=S(=O)([O-])[O-].[Cu+2] [Cu, copper(II)/cupric sulphate] and report it.
0.98

---

Overview of recorded G (growth ratio) for various compounds
# System: S. typhimurium TA1535/pSK1002
# TEST SETTINGS: 2AA 1 mg/L, +S9; genistein 10 μM and/or mineral added (Table 5); 2AA line = genotoxin alone
API note: the answer field is a bare number with no unit suffix.

Please look up its G (growth ratio): O=S(=O)([O-])[O-].[Fe+2] [Fe, iron(II) sulphate]
1.10

I have this compound here, O=S(=O)([O-])[O-].[Cu+2] [Cu, copper(II)/cupric sulphate] , and I need its recorded G (growth ratio).
1.11

Form field: reported G (growth ratio) of O=[Se](=O)([O-])[O-].[Na+].[Na+] [Se, sodium selenate]
1.18

Need G (growth ratio) of Nc1ccc2cc3ccccc3cc2c1 [2AA, 2-aminoanthracene, reference compound] , thanks.
1.00

---

# Test system: LNCaP prostate cancer cells
# ASSAY NOTES: LNCaP cell proliferation (bisbenzimide H 33258-DNA fluorescence)
# Assay type: cell-based, human
# TEST SETTINGS: 48 h incubation; isoflavone 10 μM; Zn 0.5, Se 0.03, Cu 0.5, Fe 1.5, Ca 40 μg/mL
Quick reference: LNCaP proliferation, % of control of the listed items.
Express it in %; write the number only.

The cases that follow already have their LNCaP proliferation, % of control on record.
[Ca+2].[Cl-].[Cl-] [Ca, calcium chloride] : 80
Oc1ccc([C@H]2COc3cc(O)ccc3C2)cc1 [eq, equol] : 60

Would you kindly share the measured LNCaP proliferation, % of control for O=S(=O)([O-])[O-].[Zn+2] [Zn, Zinc sulphate] ?
82

Give the measured LNCaP proliferation, % of control of O=S(=O)([O-])[O-].[Cu+2] [Cu, copper(II)/cupric sulphate] .
80

Fill blank: measured LNCaP proliferation, % of control of the compound O=c1c(-c2ccc(O)cc2)coc2cc(O)ccc12 [dai, daidzein] is ____.
70

So what does the record say about LNCaP proliferation, % of control for O=[Se](=O)([O-])[O-].[Na+].[Na+] [Se, sodium selenate] ?
84

I would be grateful if you could share the reported LNCaP proliferation, % of control for O=c1c(-c2ccc(O)cc2)coc2cc(O)cc(O)c12 [gen, genistein] .
55

---

Documented decrease in 2AA genotoxicity across a set of molecules
# Test system: S. typhimurium TA1535/pSK1002
# TEST SETTINGS: range over 2AA 5 mg/L and 1 mg/L, +S9

Before answering, review these 3 worked examples.
O=c1c(-c2ccc(O)cc2)coc2cc(O)cc(O)c12 [gen, genistein] : 17–32%
O=S(=O)([O-])[O-].[Fe+2] [Fe, iron(II) sulphate] : 14–21%
O=S(=O)([O-])[O-].[Cu+2] [Cu, copper(II)/cupric sulphate] : 26–33%

Could you now consider this next molecule?
Please look up its decrease in 2AA genotoxicity: Oc1ccc([C@H]2COc3cc(O)ccc3C2)cc1 [eq, equol]
29–34%
